molecular target: recombinant hFAP (Homo sapiens); assay: hFAP inhibition assay (Z-Gly-Pro-AMC substrate); settings: Z-Gly-Pro-AMC 20 μM; protein 66 μM; pH 7.4; room temperature
Sequence (Q12884 26-760 limits assumed): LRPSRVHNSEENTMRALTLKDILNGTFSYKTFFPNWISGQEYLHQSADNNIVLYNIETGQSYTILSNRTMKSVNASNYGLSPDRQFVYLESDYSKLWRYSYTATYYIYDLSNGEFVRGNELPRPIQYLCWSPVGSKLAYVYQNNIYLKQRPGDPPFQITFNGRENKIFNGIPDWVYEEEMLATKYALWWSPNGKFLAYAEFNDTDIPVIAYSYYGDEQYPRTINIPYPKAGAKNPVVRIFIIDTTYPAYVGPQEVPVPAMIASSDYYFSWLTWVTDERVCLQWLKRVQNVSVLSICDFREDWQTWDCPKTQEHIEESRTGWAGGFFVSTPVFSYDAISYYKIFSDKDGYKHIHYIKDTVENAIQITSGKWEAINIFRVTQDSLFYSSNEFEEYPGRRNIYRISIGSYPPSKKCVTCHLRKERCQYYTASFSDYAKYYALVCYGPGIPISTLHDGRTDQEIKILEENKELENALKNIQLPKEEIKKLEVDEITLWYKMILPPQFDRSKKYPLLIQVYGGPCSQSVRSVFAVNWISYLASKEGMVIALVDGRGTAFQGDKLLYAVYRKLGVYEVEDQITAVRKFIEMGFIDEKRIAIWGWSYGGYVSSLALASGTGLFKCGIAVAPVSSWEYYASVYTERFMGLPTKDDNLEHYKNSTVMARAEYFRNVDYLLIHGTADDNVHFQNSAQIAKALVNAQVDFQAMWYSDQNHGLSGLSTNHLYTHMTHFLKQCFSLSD
Value Kind: pIC50
The read-out pIC50 is expressed as -log10 of concentration in moles per litre.

Fill blank: measured pIC50 of the molecule N#C[C@@H]1CC(F)(F)CN1C(=O)CNC(=O)c1ccnc2c(NC(=O)CCC(=O)NCCOCCOCCOCCOCCC(=O)NCCNC(=O)CCOCC(COCCC(=O)NCCNC(=O)CCOCCOCCOCCOCCNC(=O)CCC(=O)Nc3cccc4c(C(=O)NCC(=O)N5CC(F)(F)C[C@H]5C#N)ccnc34)(COCCC(=O)NCCNC(=O)CCOCCOCCOCCOCCNC(=O)CCC(=O)Nc3cccc4c(C(=O)NCC(=O)N5CC(F)(F)C[C@H]5C#N)ccnc34)NC(=O)CCC(C(=O)O)N3CCN(CC(=O)O)CCN(CC(=O)O)CCN(CC(=O)O)CC3)cccc12 (stereo partly shown) [Tri-ESV6-PEG4-DOTAGA] is ____. 9.90
